Assign MEC (minimum effective concentration) to each entry below.
Molecular target: recombinant guanylate cyclase reporter cell line (Rattus norvegicus)
Construct: expressed in transfected cells; CHO by own knowledge of the cited Wunder et al. 2005
Sequence (P20595 1-619): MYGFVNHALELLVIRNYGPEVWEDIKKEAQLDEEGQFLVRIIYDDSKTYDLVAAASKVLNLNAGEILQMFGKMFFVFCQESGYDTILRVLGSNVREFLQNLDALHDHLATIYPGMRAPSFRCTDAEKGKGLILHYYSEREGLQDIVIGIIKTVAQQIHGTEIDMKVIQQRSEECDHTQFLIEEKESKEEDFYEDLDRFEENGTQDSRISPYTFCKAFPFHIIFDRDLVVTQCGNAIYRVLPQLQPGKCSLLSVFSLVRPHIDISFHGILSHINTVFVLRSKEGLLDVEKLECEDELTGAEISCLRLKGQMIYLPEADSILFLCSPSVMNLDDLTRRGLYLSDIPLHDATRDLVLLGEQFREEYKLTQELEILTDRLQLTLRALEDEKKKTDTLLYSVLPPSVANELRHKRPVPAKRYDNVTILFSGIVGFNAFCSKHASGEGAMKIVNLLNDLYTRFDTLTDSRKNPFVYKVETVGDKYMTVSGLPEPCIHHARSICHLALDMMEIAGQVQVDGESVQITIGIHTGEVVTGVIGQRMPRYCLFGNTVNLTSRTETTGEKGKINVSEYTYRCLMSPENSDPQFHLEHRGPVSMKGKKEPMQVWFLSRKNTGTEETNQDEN
Sequence (P19686 1-690 partner): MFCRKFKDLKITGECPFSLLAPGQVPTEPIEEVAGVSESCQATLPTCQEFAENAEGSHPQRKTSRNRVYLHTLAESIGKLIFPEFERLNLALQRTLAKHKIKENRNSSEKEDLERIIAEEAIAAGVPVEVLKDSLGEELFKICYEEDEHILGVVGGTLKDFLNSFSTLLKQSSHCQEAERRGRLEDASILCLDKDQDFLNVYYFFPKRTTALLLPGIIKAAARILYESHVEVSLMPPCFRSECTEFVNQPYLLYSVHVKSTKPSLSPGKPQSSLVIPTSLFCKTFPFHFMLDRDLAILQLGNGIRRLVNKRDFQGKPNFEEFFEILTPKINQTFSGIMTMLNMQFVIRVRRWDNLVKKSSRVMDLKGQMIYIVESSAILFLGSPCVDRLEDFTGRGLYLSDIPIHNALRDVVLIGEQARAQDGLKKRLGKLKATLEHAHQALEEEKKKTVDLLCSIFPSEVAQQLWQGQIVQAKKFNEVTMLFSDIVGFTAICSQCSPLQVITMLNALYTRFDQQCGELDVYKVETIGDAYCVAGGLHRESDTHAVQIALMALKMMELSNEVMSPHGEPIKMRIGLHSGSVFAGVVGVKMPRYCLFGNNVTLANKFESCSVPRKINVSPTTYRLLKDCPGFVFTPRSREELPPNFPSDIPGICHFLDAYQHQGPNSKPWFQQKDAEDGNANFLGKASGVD
Assay: Effect on a recombinant guanylate cyclase reporter cell line
Assay type: cell-based
Where a name gives a salt, the structure may show the parent alone.

**Query** Indicate the recorded MEC (minimum effective concentration) value for this molecule: CC(C)CN1CCN(c2ccc(-c3ccc(Cl)cc3N3CCC[C@@H](n4ncc(C(=O)O)c4C(F)F)C3)cc2)CC1 (single isomer, unassigned)
**Result** 1.0 nM

**Query** Supply MEC (minimum effective concentration) value. Item: CC(C)CN1CCN(c2ccc(-c3ccc(Cl)cc3N3CCCC(n4ncc(C(=O)O)c4C(F)(F)F)C3)cc2)CC1 (single isomer, unassigned)
**Result** 6.5 nM

**Query** Tell me measured MEC (minimum effective concentration) for O=C(O)c1cnn(C2CCCN(c3cc(Cl)ccc3-c3ccc(N4CCN(CC5CC5)CC4)cc3)C2)c1C(F)(F)F (single isomer, unassigned) [Example 10, hydrochloride] please.
**Result** 2.0 nM

**Query** Please give measured MEC (minimum effective concentration) of the following entry: O=C(O)c1cnn(C2CCCN(c3cc(Cl)ccc3-c3ccc(N4CCN(CC5CC5)CC4)cc3)C2)c1C(F)F (single isomer, unassigned) [Example 5, hydrochloride]
**Result** <0.3 nM

**Query** Output MEC (minimum effective concentration) of CC(C)CN1CCN(c2ccc(-c3ccc(Cl)cc3N3CCCC(n4ncc(C(=O)O)c4C(F)F)C3)cc2)CC1 (single isomer, unassigned) [Example 1, hydrochloride]
**Result** 2.3 nM
